# targetOrSystem: RXRγ (Mus musculus)
# Construct: expressed in transfected cells; host or cells: CV-1 (African green monkey kidney fibroblasts)
# Sequence (P28705 whole entry): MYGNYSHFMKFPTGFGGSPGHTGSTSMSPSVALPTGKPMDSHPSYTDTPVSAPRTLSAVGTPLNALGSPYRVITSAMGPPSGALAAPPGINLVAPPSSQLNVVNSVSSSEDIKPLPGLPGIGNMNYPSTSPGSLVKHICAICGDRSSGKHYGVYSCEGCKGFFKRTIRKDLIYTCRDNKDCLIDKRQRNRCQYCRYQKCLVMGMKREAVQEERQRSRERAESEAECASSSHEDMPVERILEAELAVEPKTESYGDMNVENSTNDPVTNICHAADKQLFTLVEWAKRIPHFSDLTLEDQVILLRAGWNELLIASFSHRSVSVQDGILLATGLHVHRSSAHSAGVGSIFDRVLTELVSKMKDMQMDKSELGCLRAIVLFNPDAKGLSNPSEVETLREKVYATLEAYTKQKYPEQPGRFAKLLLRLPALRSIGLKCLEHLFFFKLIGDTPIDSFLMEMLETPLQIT
# assayName: Co-transfection assay, RXRγ agonist activity
# Format: cell-based
# measurementParameters: CV-1 cells, 40 hours; read-out: RXRγ Pot (potency, EC50)
measuredQuantity: pEC50
Scale for pEC50: -log10 of concentration given in mol/L; no unit attached.

Query: Give the measured pEC50 of CC(/C=C/C=C1/CC(C)(C)Oc2cc3c(cc21)C(C)(C)CCC3(C)C)=C\C(=O)O [Compound 104b] .
Result: 7.96

###

# targetOrSystem: RARβ (Homo sapiens)
# Sequence (P10826 1-448 isoform P10826-2): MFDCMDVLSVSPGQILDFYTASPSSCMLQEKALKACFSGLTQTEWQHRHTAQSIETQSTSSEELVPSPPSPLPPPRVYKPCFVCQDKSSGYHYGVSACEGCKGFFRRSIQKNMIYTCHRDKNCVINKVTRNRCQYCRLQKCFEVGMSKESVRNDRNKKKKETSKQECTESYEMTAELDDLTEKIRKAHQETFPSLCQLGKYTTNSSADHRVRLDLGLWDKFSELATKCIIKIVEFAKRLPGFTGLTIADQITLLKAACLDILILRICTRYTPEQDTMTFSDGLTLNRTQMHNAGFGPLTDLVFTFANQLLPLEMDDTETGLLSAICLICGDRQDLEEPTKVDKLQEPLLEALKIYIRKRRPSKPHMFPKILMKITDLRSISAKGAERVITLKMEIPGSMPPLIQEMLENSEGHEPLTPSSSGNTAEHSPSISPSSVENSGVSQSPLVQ
# assayName: Co-transfection assay, RARβ agonist activity
# measurementParameters: CV-1 cells, 40 hours; read-out: RARβ Pot (potency, EC50)
measuredQuantity: pEC50
Scale for pEC50: -log10 of concentration given in mol/L; no unit attached.

Query: Give the measured pEC50 of CC(/C=C/C=C1/CC(C)(C)Oc2cc3c(cc21)C(C)(C)CCC3(C)C)=C\C(=O)O [Compound 104b] .
Result: 7.21
